# Test: reversal of MRP1-mediated doxorubicin resistance, pilot screen, H69AR cells, doxorubicin co-treatment (AID 601)
# Experimental Context: H69AR cells, CellTiter-Glo, 72 h; compound alone cytotoxicity; at 10 µM
viability by entry:
Write the answer as a number in %, unit excluded.

Worked set:
* NCCN1CCN(CCN)CC1 | 93.7
* Cn1cc(CN2CCc3ccccc3C2)c2ccccc21 | 75.6
* COc1ccc(CCNC(=O)C2CCN(C(=O)N(C)C)CC2)cc1OC | 92.8

Input line: For O=C(CCn1c(=S)[nH]c2ccccc2c1=O)NCC1CCCO1 (configuration not stated) , what is its reported viability?
Output line: 98.2

Input line: Would you mind doing CC(C)OC(=O)CSc1nnc(-c2ccco2)n1N as well?
Output line: 107

Input line: Would you mind doing Cc1nn(S(=O)(=O)N2CCCCC2)c(C)c1Br as well?
Output line: 102

Input line: Would you mind doing O=C(NC1CCS(=O)(=O)C1)N1CCCCC1 (configuration not stated) as well?
Output line: 89.6
